- STUDY SYSTEM: T1, KLK5 (#1108-SE-010, R&D Systems) (UniProt Q9Y337 23-293, limits assumed)
- T1 sequence (looked up): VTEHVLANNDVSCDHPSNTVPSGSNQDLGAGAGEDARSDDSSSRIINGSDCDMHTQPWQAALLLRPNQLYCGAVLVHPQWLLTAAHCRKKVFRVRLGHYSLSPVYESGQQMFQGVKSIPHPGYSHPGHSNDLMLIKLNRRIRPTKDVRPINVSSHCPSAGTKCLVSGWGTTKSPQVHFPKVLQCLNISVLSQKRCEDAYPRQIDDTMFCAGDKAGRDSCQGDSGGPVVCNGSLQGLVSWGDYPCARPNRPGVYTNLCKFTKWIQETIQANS
- ASSAY REMARKS: cell-based or functional assay
Positions of bridges follow the written chain, without caps; N, C: chain ends. *: point of attachment. kbt = C-terminal Arg ketobenzothiazole; Fmoc = O=C(OCC1c2ccccc2-c2ccccc21)*; kt = C-terminal Arg ketothiazole
MEASURED ENDPOINT: KLK5 IC50 (nM)

BINDER | COMPARATOR | OBSERVED MEASUREMENT
Ac-Trp-Phe-Arg-kbt [Ac-WFR-kbt, PK-1-102A1] | > | 20000
Ac-SKLR-{kbt-Val-NH2} [Ac-SKLR kbt V-amide, ZFH7116] | = | 137
Ac-SKLR-kbt [Ac-SKLR kbt, ZFH7053] | = | 2120
Ac-KQLR-kbt [Ac-KQLR-kbt, ZFH7006] | = | 1790
Ac-SQLR-kt [Ac-SQLR-kt, ZFH6138] | = | 3940
Fmoc-Trp-Arg-kbt [FmocWRkbt] | = | 4390
Fmoc-Pro-Arg-kbt [FmocPRkbt] | = | 3680
Ac-DLKR-kbt (lactam 1-3; not fully specified; printed as Cyclo(DLK)R-kbt; also: N-terminal acetyl described as 6-acetamido) [Cyclo(DLK)R-kbt, VD2173] | = | 193
